Recorded Relative % to native ligand by entry
Target: human GLP-1 receptor (GLP-1R), expressed on CHO-K1 cells (human, UniProt P43220 24-463)
Test: cell-based or functional assay
Numbered stars: 1 amine (or outer) side, 2 acyl side, 3 side chain; on linkers, the order of the positions; unused ones are H or OH. Square brackets hold non-standard residues; d marks the D form. Primed or numbered codes have the meaning given here. Side chains are listed from the residue outwards. Ends that are not written are not given here. * marks the point of attachment. C18″ = C18 fatty acid moiety (of 2OEG-γGlu-C18, K*); γGlu = O=C(O)[C@H](CCC(=O)[*:2])N[*:1]; AEEA = NCCOCCOCC(=O)O; Aib = CC(C)(N)C(=O)O
Express it in %; write the number only.

Binder: Y[Aib]QGTFTSDYSK([AEEA-AEEA-γGlu-C18″])YLDYMMQRDFVQWLIEGGPSSGAPPPS-NH2 [Peptide No. 5-2D]
Relative % to native ligand (%): 174

Binder: Y[Aib]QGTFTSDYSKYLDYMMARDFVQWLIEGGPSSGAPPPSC-NH2 [Peptide No. 5-1]
Relative % to native ligand (%): 117

Now for the binder whose Relative % to native ligand we want.
Look up Relative % to native ligand for this binder: H[Aib]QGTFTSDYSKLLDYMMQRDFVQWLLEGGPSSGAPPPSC-NH2 [Peptide No. 5-5]
1690
